B1: Nuclear receptor subfamily 4 group A member 2, residues 260 to 336; numbered along this chain, P43354 (parent)
chain: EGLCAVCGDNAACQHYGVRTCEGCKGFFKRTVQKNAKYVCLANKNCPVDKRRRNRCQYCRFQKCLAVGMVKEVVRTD

# Variants of: B1
# EXPERIMENTAL_PROTOCOL: abundance fitness (aPCA) (normalised: wild type 0, dead -1); higher = more abundant; growth selection in yeast, the domain comes from the species named
# CONDITION_NOTES: Homo sapiens
Classification field: label 1 = abundance fitness at or over -0.3; label 0 = abundance fitness under -0.3.

{"SEQUENCE_INPUT": "EGLCAVCGDNAACQHYGVRTCEGCKGGFKRTVQKNAKYVCLANKNCPVDKRRRNRCQYCRFQKCLAVGMVKEVVRTD", "GROUP_LABEL": "label 0"}
{"SEQUENCE_INPUT": "EGLCAVCGDNAACQHYGVRTCNGCKGFFKRTVQKNAKYVCLANKNCPVDKRRRNRCQYCRFQKCLAVGMVKEVVRTD", "GROUP_LABEL": "label 1"}
{"SEQUENCE_INPUT": "EGLCAVCGDNAADQHYGVRTCEGCKGFFKRTVQKNAKYVCLANKNCPVDKRRRNRCQYCRFQKCLAVGMVKEVVRTD", "GROUP_LABEL": "label 1"}
{"SEQUENCE_INPUT": "EGLCAVCGDNAACQHYGVRTCEGCKGFFKRTVQKNAKYVCLAEKNCPVDKRRRNRCQYCRFQKCLAVGMVKEVVRTD", "GROUP_LABEL": "label 1"}
{"SEQUENCE_INPUT": "EGLCAVCGDNAACQHYGVRTCEGCKGFFKRTVQKNAKYVCLANKNCPVDKRRRNRCQSCRFQKCLAVGMVKEVVRTD", "GROUP_LABEL": "label 1"}
{"SEQUENCE_INPUT": "EGLCAVCGDNAACQHYGVRTCEGCKGFFKRTVQKNAKYVCLANKNCPVDKRRRTRCQYCRFQKCLAVGMVKEVVRTD", "GROUP_LABEL": "label 0"}
{"SEQUENCE_INPUT": "EGLCAVCGDNAACQHYGVRTCEICKGFFKRTVQKNAKYVCLANKNCPVDKRRRNRCQYCRFQKCLAVGMVKEVVRTD", "GROUP_LABEL": "label 1"}
{"SEQUENCE_INPUT": "EGLCAVCGDNAACQHYGVRTCEGCKGFFKRTVQKNAKYVCLANKNCPVDKRRRFRCQYCRFQKCLAVGMVKEVVRTD", "GROUP_LABEL": "label 1"}
{"SEQUENCE_INPUT": "EGLCAVCGDNAACQHYGVRTCEGCKGFFKRTVQKNAKYVCLANCNCPVDKRRRNRCQYCRFQKCLAVGMVKEVVRTD", "GROUP_LABEL": "label 0"}
{"SEQUENCE_INPUT": "EGLCAVCGDNAACQHYGVRTCEGCKGFFKRTVQKNAKYVCLANKNCPVDKRRRGRCQYCRFQKCLAVGMVKEVVRTD", "GROUP_LABEL": "label 1"}
{"SEQUENCE_INPUT": "EGLCAVCGDNAACQHYGVRTCEGCKGFFKRTVQKNAKCVCLANKNCPVDKRRRNRCQYCRFQKCLAVGMVKEVVRTD", "GROUP_LABEL": "label 1"}
{"SEQUENCE_INPUT": "EGLCAVCGDNAACQHYGVRTCEGCKGFFKRTVQKNAKYVCLANKNCPVWKRRRNRCQYCRFQKCLAVGMVKEVVRTD", "GROUP_LABEL": "label 1"}
{"SEQUENCE_INPUT": "EGLCAVCGDNAACQHYGVRTCEGCKGFFKRTVQKNAKYVCLANKNCPVRKRRRNRCQYCRFQKCLAVGMVKEVVRTD", "GROUP_LABEL": "label 1"}
{"SEQUENCE_INPUT": "EGLCAVCGDNAACQHYGVRTCEGCKGFFKRTVQKNAKYVCLANKNCPVDKRRRNRCQYCRFQKCLADGMVKEVVRTD", "GROUP_LABEL": "label 0"}
{"SEQUENCE_INPUT": "EGLCAVCGDNAACQHYGVRTCEGCKWFFKRTVQKNAKYVCLANKNCPVDKRRRNRCQYCRFQKCLAVGMVKEVVRTD", "GROUP_LABEL": "label 0"}
{"SEQUENCE_INPUT": "EGLCAVCGDNAACQHYGVRTCEGCKGFFKRTVQKNAKYVCLANKNCPVDKRRQNRCQYCRFQKCLAVGMVKEVVRTD", "GROUP_LABEL": "label 1"}
{"SEQUENCE_INPUT": "EGLCAVCGDNAACQHYGVRTCEGCKGFFKRTVQKNAKYVCLANKNCPVDKRRRNRCQYCRFQKCLAWGMVKEVVRTD", "GROUP_LABEL": "label 0"}
{"SEQUENCE_INPUT": "EGLCAVCGDNAACQHYGVRTCEGCKGFFKRTVQKNAKYVCLNNKNCPVDKRRRNRCQYCRFQKCLAVGMVKEVVRTD", "GROUP_LABEL": "label 0"}
{"SEQUENCE_INPUT": "EGLCAVCGDNAACQHYGVRTCEGCKGFFKRTVQKNAKYVCLANKNCPVDKRRRNRCQYCRFQKCLAVGMVREVVRTD", "GROUP_LABEL": "label 1"}
{"SEQUENCE_INPUT": "EGLCAVCGDNAACQHYGVRTCEGCKGFFKRTVQKNAKYVCLMNKNCPVDKRRRNRCQYCRFQKCLAVGMVKEVVRTD", "GROUP_LABEL": "label 1"}
{"SEQUENCE_INPUT": "EGLCAVCGDNAACQHYGVPTCEGCKGFFKRTVQKNAKYVCLANKNCPVDKRRRNRCQYCRFQKCLAVGMVKEVVRTD", "GROUP_LABEL": "label 1"}
{"SEQUENCE_INPUT": "EGLCAVCGDNAACQHYGVRTCEGCKGFFKRTVQKNAKYVCLANKNCPVDKRRRNRCQYCRFQKCMAVGMVKEVVRTD", "GROUP_LABEL": "label 1"}
{"SEQUENCE_INPUT": "EGLCAVCGDNAACQHYGVRTCEGCGGFFKRTVQKNAKYVCLANKNCPVDKRRRNRCQYCRFQKCLAVGMVKEVVRTD", "GROUP_LABEL": "label 1"}
{"SEQUENCE_INPUT": "EGLCAVCGDNAACQHYGVRTCEGCKGFCKRTVQKNAKYVCLANKNCPVDKRRRNRCQYCRFQKCLAVGMVKEVVRTD", "GROUP_LABEL": "label 0"}
{"SEQUENCE_INPUT": "EGLCAVCGDNAACQHYGVFTCEGCKGFFKRTVQKNAKYVCLANKNCPVDKRRRNRCQYCRFQKCLAVGMVKEVVRTD", "GROUP_LABEL": "label 1"}
{"SEQUENCE_INPUT": "EGLCAVCGDNAACQHYGFRTCEGCKGFFKRTVQKNAKYVCLANKNCPVDKRRRNRCQYCRFQKCLAVGMVKEVVRTD", "GROUP_LABEL": "label 1"}
{"SEQUENCE_INPUT": "EGLCAVCGDNAACQHYGVRTCEGCKGFSKRTVQKNAKYVCLANKNCPVDKRRRNRCQYCRFQKCLAVGMVKEVVRTD", "GROUP_LABEL": "label 0"}
{"SEQUENCE_INPUT": "EGLCAVCGDNAACQHYGVRTCEGCKGFFKRTVQKNAKYVCLANKNCPVDKRRRNRCQYCRFQKCLAVGMVKEVVRPD", "GROUP_LABEL": "label 1"}
{"SEQUENCE_INPUT": "EGLCAVCGDNAACQHYGVRTCEGCKGFFKRTVQKNAKYVCLANKNCPVDKRRRNRCQYCRFQKCLAVIMVKEVVRTD", "GROUP_LABEL": "label 0"}
